System: TK-10 renal
ASSAY METHOD TEXT: NCI tumour cell line growth inhibition, 48 h
Parameter: TGI. Scope: all listed entries.

Completed entries (count: 4):
[[record]]
compound = "CCc1nn2ncccc2c1-c1ccnc(NC2CC2)n1"
endpoint_result = "> 25 µM"

[[record]]
compound = "CC(C)(C)c1nc(-c2cccc(NS(=O)(=O)c3c(F)cccc3F)c2F)c(-c2ccnc(N)n2)s1"
endpoint_result = "> 100 µM"

[[record]]
compound = "COC(=O)N/N=C(\\C)C(CN(C)C)C(c1ccccc1)c1c(O)c2ccccc2oc1=O (stereo not given)"
endpoint_result = "> 100 µM"

[[record]]
compound = "O=C(N/C(=C/c1cccc([N+](=O)[O-])c1)c1nc2ccc(Cl)cc2[nH]1)c1ccccc1"
endpoint_result = "62.1 µM"


Continue with the compound presented below.
Consider Cc1cn(C2OC(CO)C(O)C2F)c(=O)[nH]c1=O (stereo not given) . Its measured TGI is > 100 µM

====

System: KM20L2 colon
ASSAY METHOD TEXT: NCI tumour cell line growth inhibition, 48 h
ENDPOINT NAME: TGI

Completed entries (count: 6):
[[record]]
molecule = "C1CC2=C(C1)C1=S(S2)SC2=C1CCC2"
endpoint_result = "> 100 µM"

[[record]]
molecule = "CCC[CH2][Sn]([CH2]CCC)([O]C(=O)c1cccc(F)c1F)[O]C(=O)c1cccc(F)c1F"
endpoint_result = "3.06 µM"

[[record]]
molecule = "COc1ccc2c(c1)CCc1c(CO)c(COC(=O)NC(C)C)n(C)c1-2"
endpoint_result = "35.3 µM"

[[record]]
molecule = "CC(C)C(=S)N(C)O"
endpoint_result = "> 100 µM"

[[record]]
molecule = "O=C(O)c1ccc(Nc2nc3nn(Cc4ccccc4)cc3c(=O)s2)cc1"
endpoint_result = "> 100 µM"

[[record]]
molecule = "OC12CCC3(O)c4ccccc4C3C1c1ccccc12 (centres undefined)"
endpoint_result = "> 100 µM"


// assay KM20L2 colon, entry O=C(NCc1ccc2ccc3cccnc3c2n1)c1ccc[n+](Cc2ccccc2)c1 , TGI value = > 100 µM

// assay KM20L2 colon, entry O=C1C=C(Nc2ccc(S(=O)(=O)Nc3ncccn3)cc2)c2ccccc2C1=O , TGI value = 72.9 µM

// assay KM20L2 colon, entry CCOc1ccc(N=Cc2ccnc3ccccc23)cc1 , TGI value = > 94.8 µM

// assay KM20L2 colon, entry CC1=C(C(=O)Nc2ccccc2)C(c2cc(Cl)cc(Cl)c2)C(C(=O)Nc2ccccc2)=C(C)N1 , TGI value = 35.6 µM

// assay KM20L2 colon, entry COC(=O)CCC(=O)N1CC1C (centres undefined) , TGI value = > 100 µM

// assay KM20L2 colon, entry Cc1ccccc1N=Nc1c(-c2ccccc2)nn(C(=O)CC(=O)Nc2cccc(Cl)c2)c1-c1ccccc1 , TGI value = > 31.6 µM

// assay KM20L2 colon, entry C=Cc1c(C)c2cc3[nH]c(cc4nc(cc5nc(cc1[nH]2)C(C)=C5CCC(=O)N(CC)CC)C(CCC(=O)N(CC)CC)=C4C)c(C)c3C=C , TGI value = > 100 µM

// assay KM20L2 colon, entry COc1cccc2nc3c(C(=O)NCCN(C)C)cccc3nc12 , TGI value = 36.8 µM

// assay KM20L2 colon, entry COc1ccc2c(c1)[n+](=O)c(C(=O)CC(=O)C(=O)Nc1cccc(C)c1C)c(C)n2[O-] , TGI value = > 100 µM

// assay KM20L2 colon, entry O=C(/C(=N/Nc1ccccc1)c1ccc([N+](=O)[O-])cc1)c1ccc([N+](=O)[O-])cc1 , TGI value = > 100 µM

// assay KM20L2 colon, entry CC(=O)NC1=C(N)C(=O)c2ccccc2C1=O , TGI value = > 100 µM

// assay KM20L2 colon, entry c1ccc(C2CC(c3ccc4ccccc4c3)=Nc3ccccc3S2)cc1 (centres undefined) , TGI value = 33.1 µM

// assay KM20L2 colon, entry COC(=O)CC(C(C(C)=O)C(=O)OCc1ccccc1)N1C(=O)OC(c2ccccc2)C1c1ccccc1 (centres undefined) , TGI value = > 100 µM

Values were extracted from PubChem BioAssay (NCI).
